Data credit: patent US6303317A

# system-under-test: T1, APC-55, a peptide corresponding to amino acids 2-55 of human APC (human)
# T1 peptide: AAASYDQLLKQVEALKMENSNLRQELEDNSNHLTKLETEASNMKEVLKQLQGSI
# experiment-summary: fluorescence energy transfer titration
Where no end group is shown, it is not given here. [ ]: non-standard residue; d: D form. Nle = CCCC[C@H](N)C(=O)O
test-readout: Kd

q: Entry under review: anti-APCp2 polypeptide probe (designed binder) peptide: [Nle]AAKGDQLKKEVEALEYENSNLRKKLEDHKKKLTKLKTEISNAKK[Nle]LKQLYASI . Reported Kd?
a: < 10 nM
